# Tested on: K-562 leukemia
# TEST: NCI-60 one-dose screen, 48 h (100 = growth as untreated, 0 = no growth, -100 = all killed)
# DETAILS: 10 µM unless noted
About 83,000 compounds went through this panel and 20% of them were active in at least one assay; those are over-represented in the sample as a whole.
Measured growth by item

COMPOUND | UNIT_OF_MEASURE | growth
CCCCCCCCCCCCCCCCCCOc1ccccc1CC(=O)OCC[N+](C)(C)C | % | 18.6
CNC(=O)c1[nH]cc(-c2ccc(OC)cc2)c1-c1cc(OC)c2c(c1OC)OCO2 | % | 105
CCCCCCCCCCCCCCCCOCCCOP(=O)(O)C1CCCN(O)C1=O (stereo not drawn) | % | 19.4

###

Measured growth by item
# System: LOX IMVI melanoma
# TEST: NCI-60 one-dose screen, 48 h (100 = growth as untreated, 0 = no growth, -100 = all killed)
# DETAILS: 10 µM unless noted
The panel holds about 83,000 compounds, 20% with a hit somewhere; the sample as a whole holds those more often.

COMPOUND | TESTED_SYSTEM | UNIT_OF_MEASURE | growth
O=C(/C=C/c1cccs1)Nc1ncc(Cc2ccccc2F)s1 | LOX IMVI melanoma | % | 20.4
COc1ccc(/C=C/C(=O)c2cccc(OCCCCOc3cccc(C(=O)/C=C/c4ccc(OC)c(OC)c4)c3)c2)cc1OC | LOX IMVI melanoma | % | 61.7
Fc1cccc(Oc2ccc(Nc3ncnc4ccc(OCCCN5CCOCC5)cc34)cc2Cl)c1 | LOX IMVI melanoma | % | 21.6
CCN(CC)Cc1cc(C=C2C(=O)NC(=S)NC2=O)cc(OC)c1O | LOX IMVI melanoma | % | 105
COC(CC(F)F)c1cn(S(=O)(=O)c2ccc(C)cc2)c2ccccc12 (configuration not stated) | LOX IMVI melanoma | % | 40.7
NC(=O)c1c(NC(=O)c2ccc3ccccc3c2)sc2c1CCC(=O)C2 | LOX IMVI melanoma | % | 37.5
COc1ccc(\C=N/N=C(N)/C(N)=N\N=C/c2ccc(OC)cc2)cc1 | LOX IMVI melanoma | % | 99.1
Clc1cc(Cl)c(Cl)c(-c2nnc(SCc3ccncc3Br)o2)c1 | LOX IMVI melanoma | % | 95
Cc1ccc(-c2nc(N3CCCNCC3)c3oc(-c4ccccc4)nc3n2)cc1 | LOX IMVI melanoma | % | -91.6
Cc1[nH]c(C(=O)Nc2ccccc2OC2CCNCC2)c(Cl)c1Cl | LOX IMVI melanoma | % | -88.3
COc1cc2c(c(OC)c1OC)CCC(c1cccc(C(=O)Nc3cccc(Cl)c3)c1)O2 (configuration not stated) | LOX IMVI melanoma | % | 65.2
C#CCOC(=O)/C=C/c1cn(-c2ccccc2)nc1-c1ccc(OC)cc1 | LOX IMVI melanoma | % | 83.6
COCCOc1cc2ncnc(N3CCN(c4cc(S(C)(=O)=O)c(C)cc4Cl)CC3)c2cc1OCCOC | LOX IMVI melanoma | % | 93.5
CCOC(=O)c1nn(-c2ccc(S(N)(=O)=O)cc2)c2nc(C)cc(=O)n12 | LOX IMVI melanoma | % | 96.2
CC1CCc2c(C(=O)Nc3ncc(Cc4cccc([N+](=O)[O-])c4)s3)csc2C1 (configuration not stated) | LOX IMVI melanoma | % | 20
CN(C)Cc1ccc(O)c(C(=O)O)c1 | LOX IMVI melanoma | % | 99.4
O=C(O)c1cn(C2CC2)c2cc(N3CCN(C(=O)N(c4ccccc4)c4nc(-c5ccccc5)cs4)CC3)c(F)cc2c1=O | LOX IMVI melanoma | % | -23.6
COc1ccc(/C=N\Nc2nc(SCCC(C)C)nc(-c3ccc(OC)cc3)c2C#N)cc1 | LOX IMVI melanoma | % | 66
N#CSc1c[nH]c2cccc(/C=C/C(=O)/C=C(/C=C/c3cccc4[nH]cc(SC#N)c34)OB(F)F)c12 | LOX IMVI melanoma | % | -85.4
CCOC(=O)c1cc2c(n1C)-c1nc(NC(C)=O)sc1CCC2 | LOX IMVI melanoma | % | 79.6
CCCCNC(=O)Oc1ccc(/C(=C(/C)Cc2ccc(OC)cc2)c2ccc(OCCN3CCCC3)cc2)cc1 | LOX IMVI melanoma | % | -66.9
COc1ccc(C(=O)Nc2cccc(-c3cc(=O)c4c(OC)c(OC)c(OC)cc4o3)c2)cc1 | LOX IMVI melanoma | % | 41.9
Oc1c(I)cc(I)cc1CNCCN(Cc1ccccn1)Cc1ccccn1 | LOX IMVI melanoma | % | -64.2
C#Cc1c2c(c(OC)c3c1OCO3)[C@H]([C@H]1OC(=O)c3c1ccc(OC)c3OC)N(C)CC2 | LOX IMVI melanoma | % | 79.7
O=C(OC(CO)C(=O)NC12CC3CC(CC(C3)C1)C2)c1ccc(Cl)cc1 (configuration not stated) | LOX IMVI melanoma | % | 101
O=C1c2ccccc2-c2c1c1c(=O)[nH]c3ccccc3c1n2Cc1ccccc1 | LOX IMVI melanoma | % | 82.7
O=C(CN1CCOCC1)Nc1nc(-c2cc3ccccc3oc2=O)cs1 | LOX IMVI melanoma | % | 95.6
COC(=O)CC[C@@H]1O[C@@H](c2cccc(C(F)(F)F)c2)[C@@H](O)[C@H]1O | LOX IMVI melanoma | % | 97.4
CN(C)CCNC(=O)c1ccc(-c2nc3ccc4[nH]ncc4c3c3c2C2CCC3C2)cc1 (configuration not stated) | LOX IMVI melanoma | % | 26.2
CCOC(=O)[C@@H]1CSC(CC)=C(C(=O)O)N1 | LOX IMVI melanoma | % | 104
COc1ccc(C(=O)c2cc3c(N)c(C(=O)Nc4ccc(C)cc4)sc3nc2C)cc1 | LOX IMVI melanoma | % | 39.2
O=C(/C=C/c1ccco1)Nc1ncc(Cc2cccc(C(F)(F)F)c2)s1 | LOX IMVI melanoma | % | 5.43
Nc1cnc(C(=O)NNc2nc3cc(F)ccc3n3cccc23)cn1 | LOX IMVI melanoma | % | 22
CCNCCNc1cc(C2CCCCC2)c(C#N)c2nc3ccccc3n12 | LOX IMVI melanoma | % | -94.8
O=C(CSc1oc(-c2ccccc2)nc1S(=O)(=O)c1ccccc1)Nc1ccc(F)cc1 | LOX IMVI melanoma | % | 94
O=S(=O)(Nc1ccc(Cl)c(C(F)(F)F)c1)c1ccc(-c2cnc(C3CC3)o2)cc1 | LOX IMVI melanoma | % | 32.9
CCCOC(=O)Nc1nc2ccc(SCC(C)C)cc2s1 | LOX IMVI melanoma | % | 40.8
